Biological target: T1, glucose-dependent insulinotropic peptide (gastric inhibitory polypeptide) receptor (GIPR), primary cAMP assay … (human, UniProt P48546 22-466)
T1 sequence (looked up): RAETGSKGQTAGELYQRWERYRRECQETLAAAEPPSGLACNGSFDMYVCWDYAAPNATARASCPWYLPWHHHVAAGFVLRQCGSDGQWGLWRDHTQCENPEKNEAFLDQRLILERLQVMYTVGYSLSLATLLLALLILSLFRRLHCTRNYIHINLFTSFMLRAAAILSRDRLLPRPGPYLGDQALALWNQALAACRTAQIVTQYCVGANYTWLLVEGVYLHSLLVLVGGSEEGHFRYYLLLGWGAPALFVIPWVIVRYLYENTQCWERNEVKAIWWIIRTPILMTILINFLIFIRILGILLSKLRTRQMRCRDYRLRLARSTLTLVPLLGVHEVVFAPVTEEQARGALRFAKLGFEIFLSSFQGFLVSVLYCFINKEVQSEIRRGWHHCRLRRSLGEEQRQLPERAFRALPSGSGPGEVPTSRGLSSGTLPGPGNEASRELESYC
Experiment: cell-based or functional assay
Starred links: 1 amine or outer side, 2 acyl side, 3 side chain; linkers in the order of their positions; H or OH if unused. Non-standard residues stand in square brackets, D forms with d. Groups on a side chain read outwards from the residue. Primed or numbered codes have the meaning given here. No end group written: not given here. *: point of attachment. γGlu = O=C(O)[C@H](CCC(=O)[*:2])N[*:1]; αMeF = C[C@](N)(Cc1ccccc1)C(=O)O; αMeK = C[C@](N)(CCCCN)C(=O)O; Lauroyl = CCCCCCCCCCCC(=O)*; αMeS = C[C@](N)(CO)C(=O)O; PEG2′ = not defined here; Aib = CC(C)(N)C(=O)O
So I've got a bunch of binders here, and I need their cAMP Primary assay EC50, n1 values.
Phrase the answer as number then unit, nothing more needed.

H[Aib]EGS[αMeF]TSDVSK([PEG2′-PEG2′-γGlu-Lauroyl])YLEGK([PEG2′-PEG2′-γGlu-Lauroyl])AA[αMeK]EFIAFK([PEG2′-PEG2′-γGlu-Lauroyl])VEGG-NH2 [SEQ ID NO: 476]    19.8 nM
H[Aib]EGS[αMeF]TSDK([PEG2′-PEG2′-γGlu-Lauroyl])SSYLEK([PEG2′-PEG2′-γGlu-Lauroyl])EAA[αMeK]EFIAFK([PEG2′-PEG2′-γGlu-Lauroyl])VEGG-NH2 [SEQ ID NO: 471]    19.6 nM
H[Aib]EGS[αMeF]TSDVSK([PEG2′-PEG2′-γGlu-Lauroyl])YLEK([PEG2′-PEG2′-γGlu-Lauroyl])EAA[αMeK]EFIAK([PEG2′-PEG2′-γGlu-Lauroyl])VVEGG-NH2 [SEQ ID NO: 459]    19.7 nM
H[Aib]EGS[αMeF]TSDVSK([PEG2′-PEG2′-γGlu-Lauroyl])YLEK([PEG2′-PEG2′-γGlu-Lauroyl])EAA[αMeK]EFIK([PEG2′-PEG2′-γGlu-Lauroyl])FVVEGG-NH2 [SEQ ID NO: 443]    19.4 nM

Please give cAMP Primary assay EC50, n1, item by item, for the list that follows.
1. H[Aib]EGS[αMeF]TSDVSK([PEG2′-PEG2′-γGlu-Lauroyl])YLEGEAA[αMeK]K([PEG2′-PEG2′-γGlu-Lauroyl])FIAK([PEG2′-PEG2′-γGlu-Lauroyl])VVEGG-NH2 [SEQ ID NO: 462]
2. H[Aib]EGS[αMeF]TSDV[αMeS]SYK([PEG2′-PEG2′-γGlu-Lauroyl])EGEAA[αMeK]K([PEG2′-PEG2′-γGlu-Lauroyl])FIK([PEG2′-PEG2′-γGlu-Lauroyl])FVVEGG-NH2 [SEQ ID NO: 454]

["20 nM", "19.7 nM"]

// returns reported cAMP Primary assay EC50, n1 for input H[Aib]EGS[αMeF]TSDVSK([PEG2′-PEG2′-γGlu-Lauroyl])YLEGEK([PEG2′-PEG2′-γGlu-Lauroyl])A[αMeK]EFIAFK([PEG2′-PEG2′-γGlu-Lauroyl])VEGG-NH2 [SEQ ID NO: 477] 19.6 nM
